# Test system: RT4
# Test Description: Inhibition of cell proliferation, RT4 human bladder cancer cells (CyQuant)
# Assay type: cell-based
# Setup Conditions: Homo sapiens, RT-4, 96 h, 96-h culture, read-out: Bladder Cancer Cell Lines IC50 (μM) RT4
Result Type: IC50 (µM)

Example results:
Prompt: Entry under review: `C=C1/C(=C\C=C2/CCC[C@]3(C)[C@@H]([C@@H](CCCC(C)(C)O)CCC(=O)C(C)(C)O)CC[C@@H]23)C[C@@H](O)C[C@@H]1O` . Reported IC50?
Completion: 8.3

Prompt: Which IC50 is reported for this compound? C=C1/C(=C\C=C2/CCC[C@]3(C)C(C4(C/C=C\C(O)(C(F)(F)F)C(F)(F)F)CC4)=CCC23)CC(O)C[C@@H]1O (stereo partly shown)
Completion: 3.3

Prompt: For C=C1/C(=C\C=C2/CCC[C@]3(C)C([C@H](C)CCCC(C)(C)O)CC[C@@H]23)C[C@@H](O)C[C@@H]1O (stereo partly shown) [1,25-Dihydroxycholecalciferol] , what is its reported IC50?
Completion: 45

Prompt: Entry C=C1/C(=C\C=C2/CCC[C@]3(C)C(C4(CC#CC(O)(C(F)(F)F)C(F)(F)F)CC4)=CCC23)CC(O)C[C@@H]1O (stereo partly shown) : reported IC50 = ?
Completion: 1.7

Prompt: Dear colleague, I am looking for the recorded IC50 of the following compound: C=C1/C(=C\C=C2/CCC[C@@]3(C)C2CCC3C2(CCCC(C)(C)O)CC2)CC(OC(C)=O)C[C@@H]1OC(C)=O (stereo partly shown)
Completion: 10

Prompt: Endpoint output: IC50 of C=C1/C(=C\C=C2/CCC[C@@]3(C)C2CCC3C(CCCC(C)(C)O)CCC(O)C(C)(C)O)C[C@@H](O)C[C@@H]1O (stereo partly shown) . Value?
Completion: 71

Prompt: Find the recorded IC50 belonging to `C=C1/C(=C\C=C2/CCC[C@]3(C)C([C@@H](C)C/C=C/C(O)(CC)CC)=CC[C@@H]23)C[C@@H](O)C[C@@H]1F` and report it.
Completion: 16

Prompt: For `CC(C)(O)CCC[C@@H](CCC(=O)C(C)(C)O)[C@H]1CC[C@H]2/C(=C/C=C3C[C@@H](O)C[C@H](O)C3)CCC[C@]12C` , what is its reported IC50?
Completion: 2.6

I = C[C@]12CCC/C(=C\C=C3\CC(O)C[C@H](O)C3)C1CC=C2C1(C/C=C\C(O)(C(F)(F)F)C(F)(F)F)CC1 (stereo partly shown)
II = C=C1/C(=C\C=C2/CCC[C@@]3(C)C2CCC3[C@@H](CCCC(C)(C)O)CCC(O)C(C)(C)O)C[C@@H](O)C[C@@H]1O (stereo partly shown)
Prompt: Task for the reader: decide whether I or II has the larger IC50. The response must carry the label of the picked entry.
Completion: II
(II: 62 µM, I: 2.2 µM)

A = CC(C)(O)CCCC1(C2=CCC3/C(=C/C=C4/CC(O)C[C@H](O)C4)CCC[C@]23C)CC1 (stereo partly shown)
B = C=C1/C(=C\C=C2/CCC[C@]3(C)C(C4(CCCC(C)(C)O)CC4)=CCC23)CC(O)C[C@@H]1O (stereo partly shown)
C = C[C@]12CCC/C(=C\C=C3\CC(O)C[C@H](O)C3)C1CC=C2C1(C/C=C/C(O)(C(F)(F)F)C(F)(F)F)CC1 (stereo partly shown)
Prompt: Put the compounds in ascending order of IC50. Answer by writing out the labels in the requested order.
Completion: B, C, A

a = C=C1/C(=C\C=C2/CCC[C@]3(C)C(C4(C/C=C/C(O)(C(F)(F)F)C(F)(F)F)CC4)=CCC23)CC(O)C[C@@H]1O (stereo partly shown)
b = C[C@]12CCC/C(=C\C=C3\CC(O)C[C@H](O)C3)C1CC=C2C1(CC#CC(O)(C(F)(F)F)C(F)(F)F)CC1 (stereo partly shown)
c = CC(=O)O[C@@H]1CC(=C/C=C2\CCC[C@]3(C)C([C@H](C)CCC(=O)C(C)(C)O)=CCC23)C[C@@H](OC(C)=O)C1 (stereo partly shown)
Prompt: Which order do these items take when sorted by rising IC50? List them. # output: labels, in the requested order
Completion: a, b, c
(a: 2.3 µM, b: 5.2 µM, c: 17 µM)

* * *

# Test system: RT112
# Test Description: Inhibition of cell proliferation, RT112 human bladder cancer cells (CyQuant)
# Format: cell-based
# Setup Conditions: Homo sapiens, RT-112, 96 h, 96-h culture, read-out: Bladder Cancer Cell Lines IC50 (μM) RT112
Result Type: IC50 (µM)

Observe how each entry below is paired with its result.
Prompt: Give RT112 IC50 for C=C1/C(=C\C=C2/CCC[C@]3(C)C(C4(CC#CC(O)(C(F)(F)F)C(F)(F)F)CC4)=CCC23)CC(O)C[C@@H]1O (stereo partly shown)
Completion: 13.8

Prompt: What is its IC50 for RT112? Entry: `C=C1/C(=C\C=C2/CCC[C@]3(C)[C@@H]([C@@H](CCCC(C)(C)O)CCC(=O)C(C)(C)O)CC[C@@H]23)C[C@@H](O)C[C@@H]1O`
Completion: 25.5

Prompt: Report IC50 for `C=C1/C(=C\C=C2/CCC[C@]3(C)C([C@@H](C)C/C=C/C(O)(CC)CC)=CC[C@@H]23)C[C@@H](O)C[C@@H]1F` tested on RT112.
Completion: 12

A = C[C@]12CCC/C(=C\C=C3\CC(O)C[C@H](O)C3)C1CC=C2C1(C/C=C\C(O)(C(F)(F)F)C(F)(F)F)CC1 (stereo partly shown)
B = C[C@]12CCC/C(=C\C=C3\CC(O)C[C@H](O)C3)C1CC=C2C1(CC#CC(O)(C(F)(F)F)C(F)(F)F)CC1 (stereo partly shown)
C = CC(=O)O[C@@H]1CC(=C/C=C2\CCC[C@]3(C)C([C@H](C)CCC(=O)C(C)(C)O)=CCC23)C[C@@H](OC(C)=O)C1 (stereo partly shown)
D = C=C1/C(=C\C=C2/CCC[C@]3(C)C(C4(C/C=C\C(O)(C(F)(F)F)C(F)(F)F)CC4)=CCC23)CC(O)C[C@@H]1O (stereo partly shown)
Prompt: Rank descending by IC50. Form field (ranking): labels in requested order.
Completion: B, D, A, C
